Biological target: Human recombinant CD38 (Homo sapiens, UniProt P28907)
Sequence (P28907 whole entry): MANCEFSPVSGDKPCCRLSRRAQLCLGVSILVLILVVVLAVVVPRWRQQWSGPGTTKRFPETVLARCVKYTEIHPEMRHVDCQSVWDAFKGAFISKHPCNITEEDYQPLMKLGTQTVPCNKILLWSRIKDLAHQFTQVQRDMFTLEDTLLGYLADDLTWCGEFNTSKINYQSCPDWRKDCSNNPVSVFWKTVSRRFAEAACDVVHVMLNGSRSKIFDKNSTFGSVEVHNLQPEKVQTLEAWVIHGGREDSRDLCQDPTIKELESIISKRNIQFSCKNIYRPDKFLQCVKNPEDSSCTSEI
Assay: CD38 hydrolase inhibition assay (ε-NAD substrate, fluorescence)
Details: 0.2 ng/μL CD38, 100 μM ε-NAD, 15 m at room temperature, excitation 300 nm, emission 410 nm
pIC50: −log10 of the molar value.
Provide the reported pIC50 of each item.

Could you share which pIC50 value was measured for CO[C@H]1CC[C@H](NC(=O)c2cc(N3CC[C@H](O)C3)cc(-n3ccnc3)c2)CC1 ?
6.00 to 7.00

Same read-out for COCCO[C@H]1CC[C@H](NC(=O)c2cc(-c3cnn(C)c3)cc(-c3cncs3)c2)CC1 ?
> 7.00

Same read-out for CO[C@H]1CC[C@H](NC(=O)c2cc(-c3cncs3)cc(N3CCC[C@@H]3CO)c2)CC1 ?
6.00 to 7.00

Same read-out for CO[C@H]1CC[C@H](NS(=O)(=O)c2cc(C)cc(-n3ccnc3)c2)CC1 ?
< 6.00

Same read-out for CO[C@H]1CC[C@H](NC(=O)c2cc(C)cc(-n3ccnc3)c2)CC1 ?
6.00 to 7.00

Same read-out for CO[C@H]1CC[C@H](NC(=O)c2cc(-c3cnn(C)c3)cc(-n3ccnc3)c2)CC1 ?
> 7.00
